target: Albumin (Bos taurus) (UniProt P02769); assay: bovine serum albumin binders on microarray, profiling panel, artefact control for SMM control protein annotation, biochemical, small-molecule microarray, Alexa647 label, 635/667 nm fluorescence (AID 1118); settings: BSA-A647 binding, fluorescence 635 nm, higher = more signal;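 further: score merges 667 nm emission intensity and signal-to-noise per printed compound spot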
Sequence (P02769 whole entry, looked up): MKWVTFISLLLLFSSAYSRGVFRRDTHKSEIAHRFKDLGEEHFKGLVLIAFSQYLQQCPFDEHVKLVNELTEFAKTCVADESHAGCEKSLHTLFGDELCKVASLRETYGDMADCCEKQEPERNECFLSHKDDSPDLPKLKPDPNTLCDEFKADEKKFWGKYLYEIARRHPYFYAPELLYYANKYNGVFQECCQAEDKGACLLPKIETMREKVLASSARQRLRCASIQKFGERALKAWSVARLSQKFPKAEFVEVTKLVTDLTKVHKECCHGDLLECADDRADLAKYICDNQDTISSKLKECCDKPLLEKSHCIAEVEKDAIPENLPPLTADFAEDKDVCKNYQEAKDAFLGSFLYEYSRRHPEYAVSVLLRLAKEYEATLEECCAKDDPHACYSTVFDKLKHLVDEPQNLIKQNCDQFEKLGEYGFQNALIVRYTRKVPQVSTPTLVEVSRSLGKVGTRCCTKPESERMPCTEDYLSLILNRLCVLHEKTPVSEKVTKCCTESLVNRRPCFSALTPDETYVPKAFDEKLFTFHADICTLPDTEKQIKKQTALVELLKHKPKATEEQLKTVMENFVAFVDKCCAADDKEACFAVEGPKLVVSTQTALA
Measured Endpoint: composite z-score
Respond with the number and no other words.

Per the record, O=C1O[C@@H](c2ccccc2)[C@@H](c2ccccc2)N2[C@@H](c3ccc(O)cc3)[C@]3(C(=O)Nc4ccc(C#CCCO)cc43)[C@@H](C(=O)NC[C@H](O)c3ccccc3)[C@H]12 has composite z-score of 0.273

Per the record, O=C(O)[C@H](Cc1ccccc1)n1cc(-c2ccccn2)nn1 has composite z-score of 0.672

Per the record, COc1cc(CO)cc(I)c1O[C@H]1C=C(C(=O)NCCO)C[C@@H](N(CC2CCCCC2)C(=O)c2ccc(C(F)(F)F)cc2)[C@@H]1O has composite z-score of 0.388

Per the record, O=C1O[C@H](c2ccccc2)[C@H](c2ccccc2)N2[C@H]1[C@@H](C(=O)O)[C@]1(C(=O)Nc3ccccc31)[C@H]2c1ccc(O)cc1 has composite z-score of -0.731

Per the record, CC(C)(C)OC(=O)CC[C@]1(C(=O)NCCN2CCOCC2)N=C(c2ccc(OCCCO)cc2)O[C@H]1c1ccccc1 has composite z-score of 0.824

Per the record, C=CCOC(=O)[C@H]1[C@@H]2C(=O)O[C@@H](c3ccccc3)[C@@H](c3ccccc3)N2[C@@H](c2ccc(OCCOC(=O)[C@H]3C[C@H]4C(=O)N[C@@H](CCCC[N+](C)(C)C)C(=O)N4[C@H]3c3cccc(OCCO)c3)cc2)[C@]12C(=O)Nc1ccc(I)cc12 has composite z-score of -0.0737

Per the record, CCCC[C@@H]1C[C@H]1[C@@H](NC(=O)c1cccnc1)c1ccc(-c2ccccc2)cc1 has composite z-score of -0.294

Per the record, O=C(CS)NCCCCCCNC(=O)[C@H]1C[C@H]2C(=O)N[C@@H](Cc3ccccc3)C(=O)N2[C@H]1c1cccc(OCCO)c1 has composite z-score of -0.428

Per the record, [N-]=[N+]=Nc1ccccc1C[C@@]1(C(=O)O)N=C(c2ccc(OCCCO)cc2)O[C@@H]1c1ccccc1 has composite z-score of 0.952

Per the record, CCOC(=O)C1=CC[C@@H](c2ccccc2C(F)(F)F)N(S(=O)(=O)c2ccc(C)cc2)C1 has composite z-score of 0.959

Per the record, COC(=O)C1(Cc2ccccc2)C=C2C(=C(c3ccccc3)C(=O)C2C)CN1 (configuration not stated) has composite z-score of 0.544

Per the record, [N-]=[N+]=Nc1ccccc1C[C@]1(C(=O)NCc2ccccc2)N=C(c2ccc(OCCCO)cc2)O[C@H]1c1ccccc1 has composite z-score of 0.989

Per the record, C=CCNC(=O)[C@@H]1[C@H]2C(=O)O[C@H](c3ccccc3)[C@H](c3ccccc3)N2[C@H](c2ccccc2OCCO)[C@@]12C(=O)N(C(=O)OCCOC)c1ccc(C#CC3=CCCCC3)cc12 has composite z-score of 0.706

Per the record, O=C1NC(=O)C2C1C=CC(C(O)c1cc(C(F)(F)F)cc(C(F)(F)F)c1)N2Nc1ccc(Cl)cc1Cl (configuration not stated) has composite z-score of 0.839

Per the record, COc1cc2c(cc1OC)CN(C(=O)[C@H]1[C@@H]3C(=O)O[C@@H](c4ccccc4)[C@@H](c4ccccc4)N3[C@@H](c3ccc(OCCO)cc3)[C@]13C(=O)Nc1ccc(C#CC4(O)CCCCCC4)cc13)CC2 has composite z-score of 0.822

Per the record, COCCOC(=O)N1C(=O)[C@@]2(c3cc(C#CC4(O)CCCCCC4)ccc31)[C@H](C(N)=O)[C@H]1C(=O)O[C@H](c3ccccc3)[C@H](c3ccccc3)N1[C@@H]2c1ccccc1OCCO has composite z-score of 0.199

Per the record, C=C(C(=O)CC[C@H](OC(=O)c1cccnc1)c1cccc(OCCO)c1)C(C)C has composite z-score of -0.849

Per the record, NCCCCCCNC(=O)[C@@H]1C[C@@H]2C(=O)N3CCC[C@H]3C(=O)N2[C@@H]1c1ccc(O)cc1 has composite z-score of 0.654

Per the record, CCCC[C@@H]1C[C@H]1[C@@H](NC(=O)c1ccccc1)c1ccc(Cl)cc1 has composite z-score of -0.413

Per the record, CCOC(=O)C1=C[C@@H](c2ccccc2)N(S(=O)(=O)c2ccc(C)cc2)[C@H]1c1cccc(Cl)c1 has composite z-score of 0.895

Per the record, COc1cc(CO)cc(I)c1O[C@H]1C=C(C(=O)NCCO)C[C@@H](NCc2ccccc2F)[C@@H]1O has composite z-score of 0.162

Per the record, CC(=O)n1cc(C(O)C2C=CC3C(=O)N(Cc4ccccc4)C(=O)C3N2n2cnnc2)c2ccccc21 (configuration not stated) has composite z-score of 0.136

Per the record, [N-]=[N+]=NCc1ccccc1[C@H]1OC(c2ccc(OCCCO)cc2)=N[C@@]1(CCS(=O)(=O)c1ccccc1)C(N)=O has composite z-score of 0.736

Per the record, O=C(CS)NCCCCCCNC(=O)[C@@H]1C[C@@H]2C(=O)N3CCC[C@H]3C(=O)N2[C@@H]1c1cccc(OCCO)c1 has composite z-score of 0.848

Per the record, COc1c(C)cc(-c2cc3c(c(Cc4ccccc4)n2)[Si](C(C)C)(C(C)C)OC3)cc1C has composite z-score of 0.0401

Per the record, CC(C)c1ccc(NN2C(C(O)c3ccco3)C=CC3C(=O)N(c4ccccc4)C(=O)C32)cc1 (configuration not stated) has composite z-score of 0.488

Per the record, CN1C2C=C(CCCO)C(C3C(=O)N(C(N)=O)C(=O)C32)C1c1cccs1 (configuration not stated) has composite z-score of -0.435

Per the record, CC(C)N1CC=CC23O[C@@H]4C=CCCOC(=O)C4[C@H]2C(=O)N(CCO)[C@@H]3C1=O (some centres not stated) has composite z-score of 0.0894

Per the record, C=C(COC)/C(=C/C[C@@H](OC(=O)c1ccncc1)c1ccc(CO)o1)c1cnc2ccccc2c1 has composite z-score of 0.516

Per the record, COc1ccc([Si](C)(C)[C@@H]2[C@@H](CCO)O[C@]3(C(=O)N(Cc4cccc(N5C(=O)c6ccccc6Oc6ccccc65)c4)c4ccccc43)[C@H]2C)cc1 has composite z-score of 0.326

Per the record, O=C1c2ccccc2[C@](Cc2ccccc2I)(C(=O)NCCN2CCOCC2)[C@H](c2ccc(CO)cc2)N1Cc1ccccc1 has composite z-score of 0.673

Per the record, COC(=O)[C@@]1(Cc2ccc(F)cc2)[C@H]2c3cc(C(=O)N4CCCC4)n(CCc4c[nH]c5ccc(OC)cc45)c3C[C@H]2CN1C(=O)c1ccccc1 has composite z-score of 0.871

* * *

I'd be grateful if you could share measured z-score for these entries.
assay: A549 cell viability effects, profiling panel, calcein-AM fluorescence, 48 h, basal (AID 1162); conditions: higher = more signal; further: test concentration not given here
Respond with the number and no other words.

Per the record, C=C(C(=O)CC[C@H](OC(=O)c1cccnc1)c1ccc(CO)o1)C(C)C has z-score of -0.242

Per the record, COC(=O)[C@@]1(Cc2ccc(OC)cc2)[C@H]2c3cc(C(=O)N4CCCC4)n(CCc4cc5ccccc5[nH]4)c3C[C@H]2CN1C(=O)c1ccccc1 has z-score of -0.596

Per the record, CO[C@H]1O[C@H](CO)[C@@H](OC(=O)Nc2ccc(C(F)(F)F)cc2)[C@H](OC(=O)Nc2ccc3c(c2)OCO3)[C@H]1OC(=O)Nc1ccc2c(c1)OCO2 has z-score of -2.28

Per the record, C=CCN1C(=O)[C@@]2(CCC(=O)OC(C)(C)C)N=C(c3ccc(OCCCO)cc3)O[C@H]2c2ccccc21 has z-score of -1.22

Per the record, Cc1ccc(F)cc1S(=O)(=O)N[C@@H]1CCN(Cc2ccc(Oc3ccccc3)cc2)C1 has z-score of -1.26

Per the record, CCOC(=O)C1=CC[C@@H](c2ccccc2C(F)(F)F)N(S(=O)(=O)c2ccc(C)cc2)C1 has z-score of -0.82

Per the record, CCCc1cccc(=O)o1 has z-score of -0.996

Per the record, COC(=O)C[C@H]1O[C@]2(C(=O)N(C)c3ccccc32)[C@@H](C)[C@@H]1[Si](C)(C)c1ccc(C)cc1 has z-score of -1.55

Per the record, O=C(O)[C@H]1C[C@H]2C(=O)N3CCC[C@H]3C(=O)N2[C@H]1c1cccc(OCCO)c1 has z-score of 1.67

Per the record, C[C@]1(C(=O)NC2CC2)c2ccccc2C(=O)N(Cc2ccc(OC(F)(F)F)cc2)[C@H]1c1ccc(CO)cc1 has z-score of -0.176

Per the record, O=C(CCCCCCC(=O)Nc1ccccc1)N/N=C/c1ccccc1 has z-score of 1.08

Per the record, [N-]=[N+]=NCc1ccccc1[C@H]1OC(c2ccc(OCCCO)cc2)=N[C@@]1(CCS(=O)(=O)c1ccccc1)C(N)=O has z-score of -0.733

Per the record, COc1ccc(CCNC(=O)[C@@]2(Sc3ccc(C)cc3)CC(=O)N(Cc3cc(C(F)(F)F)cc(C(F)(F)F)c3)[C@@H]2c2ccc(CO)cc2I)cc1 has z-score of 0.154

Per the record, CCC[C@@H]1C[C@@]1(CCC)[C@@H](NP(=O)(c1ccccc1)c1ccccc1)c1ccc(Cl)cc1 has z-score of -1.19

Per the record, Cc1c(NC(=O)/C(C#N)=C/C=C/c2ccc(N(C)C)cc2)c(=O)n(-c2ccccc2)n1C has z-score of 0.284

Per the record, C=C(COC)/C(=C/C[C@@H](OC(=O)c1ccncc1)c1cccc(OCCO)c1)c1cnc2ccccc2c1 has z-score of 0.0954

Per the record, COc1ccc(C(O)C2C=CC3C(=O)N(C)C(=O)C3N2N2CCCCC2)cc1 (configuration not stated) has z-score of -0.972
